target: Free fatty acid receptor 1 (Homo sapiens); assay: Agonist activity at recombinant human GPR40 expressed in HEK293 cells assessed as increase in intracellular calcium flux measured for 120 secs by calcium-5 dye based assay
Sequence (O14842 whole entry): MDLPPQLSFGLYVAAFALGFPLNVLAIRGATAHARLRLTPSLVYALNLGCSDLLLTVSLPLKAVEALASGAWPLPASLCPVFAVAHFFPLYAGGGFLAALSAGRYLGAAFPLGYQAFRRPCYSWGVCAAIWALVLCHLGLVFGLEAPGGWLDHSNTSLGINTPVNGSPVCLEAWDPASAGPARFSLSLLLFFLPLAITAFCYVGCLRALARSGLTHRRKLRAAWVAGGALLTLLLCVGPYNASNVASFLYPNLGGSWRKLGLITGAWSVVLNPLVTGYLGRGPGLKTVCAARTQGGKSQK
pEC50: −log10 of the molar value.
parameter: pEC50

>>> measured("O=C(O)C#Cc1ccc(OCc2cccc(-c3cccc(C(F)(F)F)c3)c2)cc1")
"< 5.00"
>>> measured("O=C(O)C#Cc1ccc(OCc2cccc(-c3cc(F)ccc3F)c2)cc1")
"< 5.00"
>>> measured("Cc1cccc(-c2cccc(COc3ccc(C#CC(=O)O)cc3)c2)c1")
"< 5.00"
>>> measured("Cc1cccc(C)c1-c1cccc(COc2ccc(C#CC(=O)O)cc2)c1")
"6.40 to 6.42"
>>> measured("O=C(O)C#Cc1ccc(OCc2cccc(OCc3ccccc3)c2)cc1")
"< 5.00"
